- Target: AR (Homo sapiens)
- Construct: endogenous in cells; host or cells: VCaP cells
- Sequence (P10275 1-920): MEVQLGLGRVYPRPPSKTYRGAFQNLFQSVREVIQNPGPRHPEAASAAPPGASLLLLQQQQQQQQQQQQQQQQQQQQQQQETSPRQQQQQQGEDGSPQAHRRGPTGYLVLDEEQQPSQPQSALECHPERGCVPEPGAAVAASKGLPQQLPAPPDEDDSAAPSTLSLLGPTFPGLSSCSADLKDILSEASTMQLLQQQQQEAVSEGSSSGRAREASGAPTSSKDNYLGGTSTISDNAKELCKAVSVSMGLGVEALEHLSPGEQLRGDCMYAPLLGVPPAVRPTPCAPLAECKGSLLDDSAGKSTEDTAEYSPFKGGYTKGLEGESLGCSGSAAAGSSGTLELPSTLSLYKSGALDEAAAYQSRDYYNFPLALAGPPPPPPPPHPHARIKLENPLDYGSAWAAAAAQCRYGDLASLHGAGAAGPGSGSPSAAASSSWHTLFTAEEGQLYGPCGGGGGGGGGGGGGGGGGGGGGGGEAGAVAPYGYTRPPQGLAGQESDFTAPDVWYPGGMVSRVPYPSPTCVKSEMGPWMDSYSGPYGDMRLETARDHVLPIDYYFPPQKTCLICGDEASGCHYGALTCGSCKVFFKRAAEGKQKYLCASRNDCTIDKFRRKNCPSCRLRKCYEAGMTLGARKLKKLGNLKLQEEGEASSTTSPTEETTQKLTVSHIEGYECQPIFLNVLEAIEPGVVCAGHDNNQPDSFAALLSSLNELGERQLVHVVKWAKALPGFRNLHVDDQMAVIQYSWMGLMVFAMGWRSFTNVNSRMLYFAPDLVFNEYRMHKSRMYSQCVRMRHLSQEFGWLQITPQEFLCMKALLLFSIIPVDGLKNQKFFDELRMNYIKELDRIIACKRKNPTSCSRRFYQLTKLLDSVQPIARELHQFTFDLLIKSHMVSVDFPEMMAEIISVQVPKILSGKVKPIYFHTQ
- Test: VCAP AR Degradation Assay
- Type: cell-based
- Settings: VCaP cells, 24 h, AR ELISA; concentration of compound when AR level = 50% of DMSO control
Structures can show the parent of a compound that is named as a salt.
Experimental Readout: DC50

Compound | DC50
C[C@@H]1CN(CCO[C@H]2CC[C@H](N3C(=S)N(c4ccc(C#N)c(C(F)(F)F)c4)C(=O)C3(C)C)CC2)C[C@H](C)N1CC(=O)Nc1ccc(C2(C)CCC(=O)NC2=O)cn1 (single isomer, unassigned) [Cmpd 5, hydrochloride] | > 200 nM

Below: the item to evaluate.
Item under review: C[C@@H]1CN(CCO[C@H]2CC[C@H](N3C(=S)N(c4ccc(C#N)c(Cl)c4)C(=O)C3(C)C)CC2)C[C@H](C)N1CC(=O)Nc1cc(C2CCC(=O)NC2=O)ccn1 (some centres unmarked) [Cmpd 4, hydrochloride] . Reported DC50? 5 to 50 nM

====

- Target: AR (Homo sapiens, UniProt P10275)
- Construct: endogenous in cells; host or cells: VCaP cells
- Test: VCAP AR Degradation Assay
- Format: cell-based
- Settings: VCaP cells, 24 h, AR ELISA; lowest measured AR level normalized to DMSO control (AR degradation efficiency)
Structures can show the parent of a compound that is named as a salt.
Experimental Readout: Y

As a guide, the following entries are already answered.
Compound | Y
CC1(C)C(=O)N(c2ccc(C#N)c(C(F)(F)F)c2)C(=S)N1[C@H]1CC[C@H](OCCN2CCN(CC(=O)Nc3cc(C4CCC(=O)NC4=O)ccn3)[C@@H](C(F)(F)F)C2)CC1 (stereo partly shown) | * (0<Y≤20%)
C[C@@H]1CN(CCO[C@H]2CC[C@H](N3C(=S)N(c4ccc(C#N)c(C(F)(F)F)c4)C(=O)C3(C)C)CC2)C[C@H](C)N1CC(=O)Nc1ccc(C2(C)CCC(=O)NC2=O)cn1 (single isomer, unassigned) [Cmpd 6, hydrochloride] | *** (40%<Y<80%)
C[C@@H]1C[C@H](OCCC[C@H]2CC[C@H](N3C(=S)N(c4ccc(C#N)c(C(F)(F)F)c4)C(=O)C3(C)C)CC2)C[C@H](C)N1CC(=O)Nc1cc(C2CCC(=O)NC2=O)ccn1 (stereo partly shown) | ** (20%<Y≤40%)
C[C@@H]1C[C@H](OCCO[C@H]2CC[C@H](N3C(=S)N(c4cnc(C#N)c(C(F)(F)F)c4)C(=O)C3(C)C)CC2)C[C@H](C)N1CC(=O)Nc1cc(C2CCC(=O)NC2=O)ccn1 (stereo partly shown) | ** (20%<Y≤40%)
C[C@@H]1CN(CCO[C@H]2CC[C@H](N3C(=S)N(c4ccc(C#N)c(C(F)(F)F)c4)C(=O)C3(C)C)CC2)C[C@H](C)N1CCCOc1ccc(N2CCC(=O)NC2=O)cn1 [Cmpd 12, hydrochloride] | *** (40%<Y<80%)

Item under review: CC1(C)C(=O)N(c2ccc(C#N)c(C(F)(F)F)c2)C(=S)N1[C@H]1CC[C@H](CCCN2CCN(CC(=O)Nc3cc(C4CCC(=O)NC4=O)ccn3)[C@@H](C(F)(F)F)C2)CC1 (stereo partly shown) . Reported Y? ** (20%<Y≤40%)

Item under review: CC1(C)C(=O)N(c2ccc(C#N)c(C(F)(F)F)c2)C(=S)N1[C@H]1CC[C@H](OCCCN2CCN(CC(=O)Nc3cc(C4CCC(=O)NC4=O)ccn3)[C@@H](C(F)(F)F)C2)CC1 (stereo partly shown) . Reported Y? * (0<Y≤20%)

Item under review: C[C@@H]1C[C@H](OCC[C@H]2CC[C@H](N3C(=S)N(c4ccc(C#N)c(C(F)(F)F)c4)C(=O)C3(C)C)CC2)C[C@H](C)N1CC(=O)Nc1cc(C2CCC(=O)NC2=O)ccn1 (stereo partly shown) . Reported Y? ** (20%<Y≤40%)

Item under review: C[C@@H]1CN(CCO[C@H]2CC[C@H](N3C(=S)N(c4ccc(C#N)c(C(F)(F)F)c4)C(=O)C3(C)C)CC2)C[C@H](C)N1CCOc1cc(C2CCC(=O)NC2=O)ccn1 (stereo partly shown) [Cmpd 15, hydrochloride] . Reported Y? *** (40%<Y<80%)

Item under review: C[C@@H]1CN(CCO[C@H]2CC[C@H](N3C(=S)N(c4ccc(C#N)c(C(F)(F)F)c4)C(=O)C3(C)C)CC2)C[C@H](C)N1CCOc1ccc(N2CCC(=O)NC2=O)cn1 [Cmpd 11, hydrochloride] . Reported Y? *** (40%<Y<80%)

Item under review: C[C@@H]1CN(CCCO[C@H]2CC[C@H](N3C(=S)N(c4ccc(C#N)c(C(F)(F)F)c4)C(=O)C3(C)C)CC2)C[C@H](C)N1CC(=O)Nc1ccc(C2CCC(=O)NC2=O)cn1 (stereo partly shown) [Cmpd 10, hydrochloride] . Reported Y? *** (40%<Y<80%)

Item under review: C[C@@H]1CN(CCO[C@H]2CC[C@H](N3C(=S)N(c4ccc(C#N)c(C(F)(F)F)c4)C(=O)C3(C)C)CC2)C[C@H](C)N1CC(=O)Nc1ccc(C2(C)CCC(=O)NC2=O)cn1 (single isomer, unassigned) [Cmpd 5, hydrochloride] . Reported Y? *** (40%<Y<80%)

Item under review: CC1(C)C(=O)N(c2cnc(C#N)c(C(F)(F)F)c2)C(=S)N1[C@H]1CC[C@H](OCCCN2CCN(CC(=O)Nc3cc(C4CCC(=O)NC4=O)ccn3)[C@@H](C(F)(F)F)C2)CC1 (stereo partly shown) . Reported Y? * (0<Y≤20%)

====

- Target: AR (Homo sapiens, UniProt P10275)
- Construct: endogenous in cells; host or cells: VCaP cells
- Test: VCAP AR Degradation Assay
- Assay type: cell-based
- Settings: VCaP cells, 24 h, AR ELISA; concentration of compound when AR level = 50% of DMSO control
Counter-ions that a name gives are not always drawn.
Reported values of DC50 for individual entries

As a guide, the following entries are already answered.
Compound | DC50
C[C@@H]1CN(CCO[C@H]2CC[C@H](N3C(=S)N(c4ccc(C#N)c(C(F)(F)F)c4)C(=O)C3(C)C)CC2)C[C@H](C)N1CCOc1cc(C2CCC(=O)NC2=O)ccn1 (some centres unmarked) [Cmpd 15, hydrochloride] | 5 to 50 nM
C[C@@H]1CN(CCCC[C@H]2CC[C@H](N3C(=S)N(c4ccc(C#N)c(C(F)(F)F)c4)C(=O)C3(C)C)CC2)C[C@H](C)N1CC(=O)Nc1cc(C2CCC(=O)NC2=O)ccn1 (some centres unmarked) [Cmpd 14, hydrochloride] | 5 to 50 nM

Item under review: CC1(C)C(=O)N(c2cnc(C#N)c(C(F)(F)F)c2)C(=S)N1[C@H]1CC[C@H](OCCCN2CCN(CC(=O)Nc3cc(C4CCC(=O)NC4=O)ccn3)[C@@H](C(F)(F)F)C2)CC1 (some centres unmarked) [Cmpd 25] . Reported DC50? ≤ 5 nM

Item under review: C[C@@H]1CN(CCO[C@H]2CC[C@H](N3C(=S)N(c4ccc(C#N)c(C(F)(F)F)c4)C(=O)C3(C)C)CC2)C[C@H](C)N1CCCOc1cc(C2CCC(=O)NC2=O)ccn1 (some centres unmarked) [Cmpd 16, hydrochloride] . Reported DC50? 50 to 200 nM

Item under review: C[C@@H]1CN(CCO[C@H]2CC[C@H](N3C(=S)N(c4ccc(C#N)c(C(F)(F)F)c4)C(=O)C3(C)C)CC2)C[C@H](C)N1CCCOc1ccc(N2CCC(=O)NC2=O)cn1 [Cmpd 12, hydrochloride] . Reported DC50? > 200 nM
